Test system: K562
assay-info: NCI tumour cell line growth inhibition, 48 h
Calls of active or inactive are those of the source. No stated cut-off is given here; in the data, active = GI50 up to about 1.1 µM and inactive = higher.
measured-property: GI50

## Input // lookup GI50 for COC(=O)/C=C\n1c(C)cc(=O)[nH]c1=O
## Output > 100 µM (inactive)

## Input // next record C=CCC(O[Si](C)(C)C(C)(C)C)c1cc(O[Si](C)(C)C(C)(C)C)ccc1OC (stereo not given)
## Output > 100 µM (inactive)

## Input // next record Cc1ccc(S(=O)(=O)N/N=C2\CCC3(O)CC2(C)CCC2C3CC2(C)C)cc1 (stereo not given)
## Output > 100 µM (inactive)

## Input // next record CC1OC(OC2C(O)COC(OC3C(C)OC(OC4C(OC(=O)[C@]56CCC(C)(C)C[C@@H]5C5=CCC7[C@@]8(C)C[C@H](O)[C@H](OC9OC(CO)C(O)C(O)C9O)[C@@](C)(CO)[C@@H]8CC[C@@]7(C)[C@]5(C)CC6)OCC(O)C4O)C(O)C3OC3OCC(O)C(O)C3O)C2O)C(O)C(O)C1O (stereo not given in full)
## Output 42.9 µM (inactive)

## Input // next record O=C(Nc1ccc(Br)cc1)C(=O)C(C(=O)c1ccccc1F)C1OC(=O)c2ccccc21 (stereo not given)
## Output 31 µM (inactive)

---

Tested on: NCI-H23
assay-info: NCI tumour cell line growth inhibition, 48 h
Active and inactive are the calls of the source. Cut-off read from the data, not from the text of the source: active = GI50 up to about 1.1 µM and inactive = higher.
Response enum: class 1 = active, class 0 = inactive

## Input Please let me know the test result on file for O=C(OC(/C=C/c1ccccc1)P1(=O)N(Cc2ccccc2)[C@@H]2CCCC[C@H]2N1Cc1ccccc1)c1ccccc1 (some centres undefined) .
## Output class 0

## Input // next record CN1CCC23c4c5ccc(O)c4OC2C(=NN=C2CCC4(O)C6Cc7ccc(O)c8c7C4(CCN6C)C2O8)CCC3(O)C1C5 (centres undefined)
## Output class 0

## Input // next record C=C1C(=O)O[C@H]2[C@H]1[C@@H](OC(=O)C=C(C)C)CC1=C[C@@H](C[C@@]3(C)O[C@@H]23)OC1=O
## Output class 0

## Input // next record C=C1C2CCC3C4(C)CCCC(C)(C(=O)O)C4CCC3(C2)C1OC(=O)/C(C)=C/C (centres undefined)
## Output class 0

## Input // next record COc1cc(C2c3cc4c(cc3[C@H](OCCN(C)C)[C@@H]3COC(=O)C23)OCO4)cc(OC)c1O (some centres undefined)
## Output class 1

## Input // next record CC1(CO)OC(n2cc(C(=O)NC(=O)OCc3ccccc3)c(=O)[nH]c2=O)CC1O (centres undefined)
## Output class 0

## Input // next record OCCN(C1=NCCN1)/[N+](=C/c1ccccc1O)[CH-]c1ccccc1O
## Output class 0

## Input // next record CC(C)c1c(P(=O)(c2ccccc2)c2ccccc2)n(C)c2ccccc12
## Output class 0

## Input // next record CC1=C[C@H](O)[C@@]2(C)[C@@H]([C@@H]1C)[C@H]1CC[C@@H]3[C@@]4(C)CC[C@H](O)C(C)(C)[C@@H]4CC[C@@]3(C)[C@]1(C)C[C@@H]2O
## Output class 0

---

System: SW-620
assay-info: NCI tumour cell line growth inhibition, 48 h
Calls of active or inactive are those of the source. Cut-off read from the data, not from the text of the source: active = GI50 up to about 1.1 µM and inactive = higher.
Response enum: active, inactive

## Input Please let me know the test result on file for O=c1cc(NNc2ccc(F)cc2)[nH]c(=O)[nH]1 .
## Output inactive

## Input // next record CC1OC(OC2C(O[C@H]3CC[C@@]4(C)C(=CC[C@H]5[C@@H]6C[C@@H]7O[C@]8(CC[C@@H](C)CO8)[C@@H](C)[C@@H]7[C@@]6(C)CC[C@@H]54)C3)OC(CO)C(O)C2O)C(O)C(O)C1O (some centres undefined)
## Output active

## Input // next record CSc1ccn(C2CC(F)C(CO)O2)c(=O)n1 (centres undefined)
## Output inactive

## Input // next record Cc1ccc(-c2cc(-c3ccco3)c(C#N)c(O)n2)cc1
## Output inactive
